The origin of these recorded values is patent US20240083857A1.

- target or test system: human SOS1 (loading of human K-Ras^G12C-GDP with fluorescent GTP-analog) (Homo sapiens)
- measurement description: Biochemical assay 3: K-Ras^G12C activation assay by hSOS1 (HTRF)
- measurement context: no GTP; read-out: Assay 3 (KRAS-Activation by SOS no GTP) activity expressed as IC50
pIC50: −log10 of the molar value.
Tag: true if measured pIC50 is not below 6, false if it is.

Assess whether reported pIC50 for COc1cc2nc(C)nc(N[C@@H](C)c3ccc(-c4ccc5cc[nH]c5c4)s3)c2cc1OC (racemic) sits at 6 or higher. false

Assess whether reported pIC50 for COc1cc2nc(C)nc(N[C@@H](C)c3ccc(-c4cnc5[nH]ccc5c4)s3)c2cc1OC (racemic) sits at 6 or higher. false

---

- target or test system: human SOS1 (nucleotide exchange of K-Ras^G12C) (Homo sapiens, UniProt Q07889)
- measurement description: Biochemical assay 2: K-Ras^G12C activation assay by hSOS1 at high GTP concentration (HTRF)
- measurement context: high GTP; read-out: Assay 2 (KRAS-Activation by SOS high GTP) activity expressed as IC50
Documented IC50 across a set of molecules
Hi! Could you send only the number? It should be in nM, unit omitted.

Guide cases for IC50, answers given:
molecule | measurement type | observed measurement
COc1cc2nc(C)nc(NC(C)c3ccc(-c4ccccc4C#N)s3)c2cc1OC (stereo not shown) | IC50 | 900
COc1cc2nc(C)nc(NC(C)c3ccc(-c4cnc5n4CCC5)s3)c2cc1OC (single isomer, unassigned; enantiomer 2) [Example 329] | IC50 | 6470
COc1cc2nc(C)nc(N[C@@H](C)c3ccc(-c4cncnc4)s3)c2cc1OC (racemic) | IC50 | 5580

Consider the molecule COc1cc2nc(C)nc(N[C@H](C)c3ccc(-c4ccccc4CCN)s3)c2cc1OC (stereo in doubt) and give its measured IC50. 48.8

Consider the molecule CC[C@@H](O)c1ccccc1-c1ccc(C(C)Nc2nc(C)nc3cc(OC)c(OC)cc23)s1 (stereo partly shown) and give its measured IC50. 649

Consider the molecule COc1cc2nc(C)nc(N[C@H](C)c3cccc(-c4ccoc4)c3)c2cc1OC and give its measured IC50. 935

Consider the molecule COc1cc2nc(C)nc(N[C@@H](C)c3ccc(-c4ccccc4)s3)c2cc1OC (stereo in doubt) and give its measured IC50. 8620

---

- target or test system: human SOS1 (loading of human K-Ras^G12C-GDP with fluorescent GTP-analog) (Homo sapiens, UniProt Q07889)
- measurement description: Biochemical assay 3: K-Ras^G12C activation assay by hSOS1 (HTRF)
- measurement context: no GTP; read-out: Assay 3 (KRAS-Activation by SOS no GTP) activity expressed as IC50
measurement type: IC50 (µM)
Hi! Could you send only the number? It should be in µM, unit omitted.

molecule | IC50, µM
COc1cc2nc(C)nc(N[C@H](C)c3cccc(-c4ccc5c(c4)CC(=O)N5)c3)c2cc1OC | 0.629
COc1cc2nc(C)nc(NC(C)c3ccc(-c4ccccc4CNCCO)s3)c2cc1OC (stereo not shown) | 0.0606
COc1cc2nc(C)nc(NC(C)c3nccc4sccc34)c2cc1OC (stereo not shown) | 14.8

// next item, IC50 requested
Consider the molecule COc1ncc(-c2ccc([C@H](C)Nc3nc(C)nc4cc(OC)c(OC)cc34)s2)cn1 (racemic) and give its measured IC50. 9.19
